Cited source: ChEMBL document CHEMBL6071184

- experimental-target: Carbonic anhydrase 3 (Homo sapiens, UniProt P07451)
- Sequence (P07451 whole entry): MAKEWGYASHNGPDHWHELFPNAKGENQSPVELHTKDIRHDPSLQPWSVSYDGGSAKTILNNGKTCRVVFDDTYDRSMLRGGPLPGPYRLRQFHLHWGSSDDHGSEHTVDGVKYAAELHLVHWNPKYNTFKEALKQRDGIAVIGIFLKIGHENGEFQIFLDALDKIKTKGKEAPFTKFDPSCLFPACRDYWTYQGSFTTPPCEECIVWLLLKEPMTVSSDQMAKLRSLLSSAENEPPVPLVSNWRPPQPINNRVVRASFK
pKi: −log10 of the molar value.
property-label: pKi

[[record]]
smiles_record = "NS(=O)(=O)c1cc(C(=O)O)c(Cl)cc1Cl"
property_label = "pKi"
measured = "< 4.30"


----------
- experimental-target: Carbonic anhydrase 6 (Homo sapiens, UniProt P23280)
- Sequence (P23280 whole entry): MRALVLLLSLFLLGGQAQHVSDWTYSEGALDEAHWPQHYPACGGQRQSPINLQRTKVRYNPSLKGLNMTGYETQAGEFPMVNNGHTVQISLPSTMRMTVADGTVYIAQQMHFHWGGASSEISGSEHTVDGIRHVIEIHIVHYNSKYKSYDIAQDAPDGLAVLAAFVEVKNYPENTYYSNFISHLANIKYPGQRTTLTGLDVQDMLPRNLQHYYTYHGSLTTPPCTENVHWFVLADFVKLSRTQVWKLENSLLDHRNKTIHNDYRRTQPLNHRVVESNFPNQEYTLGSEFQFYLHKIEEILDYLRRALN
pKi: −log10 of the molar value.
property-label: pKi

[[record]]
smiles_record = "NS(=O)(=O)c1cc(C(=O)O)c(Cl)cc1Cl"
measured = 7.93


----------
- experimental-target: Carbonic anhydrase 5B, mitochondrial (Homo sapiens)
- Sequence (Q9Y2D0 whole entry): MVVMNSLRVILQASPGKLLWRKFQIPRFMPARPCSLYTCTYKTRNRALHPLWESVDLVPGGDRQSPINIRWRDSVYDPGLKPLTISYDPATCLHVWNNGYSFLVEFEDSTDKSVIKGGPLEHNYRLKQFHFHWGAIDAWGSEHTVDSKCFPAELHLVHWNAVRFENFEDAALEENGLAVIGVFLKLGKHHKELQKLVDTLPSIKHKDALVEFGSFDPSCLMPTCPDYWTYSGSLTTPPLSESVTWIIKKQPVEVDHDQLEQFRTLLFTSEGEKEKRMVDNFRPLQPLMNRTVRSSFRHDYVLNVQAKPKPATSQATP
- procedure-summary: Inhibition of full-length recombinant human CA VB-catalysed CO2 hydration by stopped-flow technique
pKi: −log10 of the molar value.
property-label: pKi

[[record]]
smiles_record = "NS(=O)(=O)c1cc(C(=O)O)c(Cl)cc1Cl"
measured = 7.85

